experiment: Pharmacokinetics in female BALB/c nude mice bearing A375 xenografts, 1 day dosing (PK and PD study): plasma, tumor and brain concentrations, AUC; format: in vivo; conditions: mouse, brain, po, 3 mg/kg, 3 mg/kg p.o. BID × 1 day; post 2nd dose; 10 h; read-out: Mean Concentration in Brain ± SEM
metricName: concentration at 10 h (ng/g)
Numbers only, in ng/g.

// query concentration at 10 h value for entry CCN(C)S(=O)(=O)Nc1ccc(F)c(Oc2ccc3ncn([C@H]4COC5(CCN(C6CC7(C6)CN(c6cc8c(cc6F)c(N6CCC(=O)NC6=O)nn8C)C7)CC5)C4)c(=O)c3c2)c1C#N [Compound 26] 14.5

* * *

system: A375-NRAS^Q61K cells; experiment: CTGlo Cell Viability Assay, A375-NRAS^Q61K (A375.11) cells, 96 hours; type: cell-based, human; conditions: Homo sapiens, 96 h, A375.11 (A375-NRAS^Q61K) cells
Answer each item with its documented GI50.

Solved cases (3 shown):
molecule=Cn1nc(N2CCC(=O)NC2=O)c2cc(F)c(N3CC4(CC(N5CCC6(CC5)C[C@@H](n5cnc7ccc(Oc8c(F)ccc(NS(=O)(=O)N9CC%10(CCC%10)C9)c8C#N)cc7c5=O)CO6)C4)C3)cc21 metricname=GI50 valueobserved="< 1000 nM"
molecule="Cn1nc(N2CCC(=O)NC2=O)c2cc(F)c(C3CCC(N4CCC5(CC4)C[C@@H](n4cnc6ccc(Oc7c(F)ccc(NS(=O)(=O)C8CCCC8)c7C#N)cc6c4=O)CO5)CC3)cc21 (single isomer, unassigned)" metricname=GI50 valueobserved="< 1000 nM"
molecule="CO[C@@H]1CCN(S(=O)(=O)Nc2ccc(F)c(Oc3ccc4ncn([C@H]5COC6(CCN(C7CCC(c8ccc(NC9CCC(=O)NC9=O)cc8F)CC7)CC6)C5)c(=O)c4c3)c2C#N)C1 (single isomer, unassigned)" metricname=GI50 valueobserved="< 1000 nM"

Count: 3. Required value per item: GI50.
1. CCN(C)S(=O)(=O)Nc1ccc(F)c(Oc2ccc3ncn([C@H]4COC5(CCC(N6CC[C@@H](c7ccc(NC8CCC(=O)NC8=O)cc7F)C(F)(F)C6)CC5)C4)c(=O)c3c2)c1C#N (stereo partly drawn)
2. CCN(C)S(=O)(=O)Nc1ccc(F)c(Oc2ccc3ncn([C@H]4COC5(CCN(C6CCC(c7ccc(NC8CCC(=O)NC8=O)cc7F)CC6)CC5)C4)c(=O)c3c2F)c1C#N (single isomer, unassigned)
3. CC(C)S(=O)(=O)Nc1ccc(F)c(Oc2ccc3ncc(C4CC5(CCN(C6CC7(C6)CN(c6cc8c(cc6F)c(N6CCC(=O)NC6=O)nn8C)C7)CC5)C4)nc3c2)c1C#N (stereo not drawn)

["> 10000 nM", "< 1000 nM", "1000 to 10000 nM"]

* * *

test: Pharmacokinetics in female BALB/c nude mice bearing A375 xenografts, 1 day dosing (PK and PD study): plasma, tumor and brain concentrations, AUC; format: in vivo; details: mouse, plasma, po, 1.5 mg/kg, 1.5 mg/kg p.o. BID × 1 day; post 2nd dose; 2 h; read-out: Mean Concentration in Plasma ± SEM
metricName: concentration at 2 h (ng/mL)
Numbers only, in ng/mL.

May I ask what concentration at 2 h has been recorded for CCN(C)S(=O)(=O)Nc1ccc(F)c(Oc2ccc3ncn([C@H]4COC5(CCN(C6CC7(C6)CN(c6cc8c(cc6F)c(N6CCC(=O)NC6=O)nn8C)C7)CC5)C4)c(=O)c3c2)c1C#N [Compound 26] ? 2930

The reported measurements were obtained from patent US20260297060A1.
